target: T1, Human CD47-C33G (human, UniProt Q08722 19-135); experiment: SPR, IgG captured, CD47 in flow; exp 4;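 also: biacore T200 SPR using IgG from transfected HEK293 supernatants against wild-type human CD47 or its C33G mutein, rates fitted to association and dissociation curves, KD estimated from them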
T1 construct: also called CD47 mutein with C33G mutation
T1 sequence (Q08722 19-135 C33G limits assumed): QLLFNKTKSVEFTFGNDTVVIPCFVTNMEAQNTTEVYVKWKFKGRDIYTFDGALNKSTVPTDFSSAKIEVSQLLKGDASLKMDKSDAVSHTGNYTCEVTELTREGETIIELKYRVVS
Catalogue of kon values
Form entry: value (M⁻¹ s⁻¹) — number only.

108VH5.M26 / 108VL1.M5 (antibody, human IgG4 S228P, kappa, V domains shown, Full-length IgG4 (S228P), kappa; also called VH5.M26 VL1.M5) VH: EVQLVQSGAEVKKPGASVKVSCKASGYTFTHHWMHWVRQAPGQGLEWMGMIDASDVETRYAQKFQGRVTMTRDTSTSTVYMELSSLRSEDTAVYYCARLGRYYFDYWGQGTLVTVSS VL: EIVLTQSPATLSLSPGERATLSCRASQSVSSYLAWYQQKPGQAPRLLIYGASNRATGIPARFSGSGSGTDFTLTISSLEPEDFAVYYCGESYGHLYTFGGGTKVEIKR
240000

Okay, next one:
Enquiry: Give the reported value of kon for this record: 108VH5.M22 / 108VL1.M5 (antibody, human IgG4 S228P, kappa, V domains shown, Full-length IgG4 (S228P), kappa; also called VH5.M22 VL1.M5) VH: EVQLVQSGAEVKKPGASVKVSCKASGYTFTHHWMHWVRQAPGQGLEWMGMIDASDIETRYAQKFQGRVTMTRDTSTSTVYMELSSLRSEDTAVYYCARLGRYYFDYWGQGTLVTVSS VL: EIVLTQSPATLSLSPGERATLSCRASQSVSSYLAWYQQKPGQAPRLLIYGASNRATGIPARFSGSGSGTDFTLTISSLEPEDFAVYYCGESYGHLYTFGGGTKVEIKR
Return: 200000
